Answer each item with its documented protein stability index.
B1: FEM1B (parent)
chain: TLAALLLNRSESDIRYLLGYVSQQ

Variants of: B1
procedure-details: protein stability index of a GFP-peptide fusion (GPS, HEK-293T) (PSI 1-6); higher = more stable;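 note: lentivirally expressed fusions sorted by FACS into six bins by GFP to DsRed ratio, PSI derived from sequencing read proportions per bin multiplied by bin number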
particulars: c terminus: a fixed tail appended
Give a plain numeric answer without units written out.

Prompt: Look up and state reported protein stability index for Y20W
Response: 2.52

Prompt: Look up and state reported protein stability index for L18D
Response: 1.64

Prompt: Look up and state reported protein stability index for L7R
Response: 1.78

Prompt: Look up and state reported protein stability index for G19H
Response: 2.78

Prompt: Look up and state reported protein stability index for A4N
Response: 2.53

Prompt: Look up and state reported protein stability index for D13L
Response: 3.62

Prompt: Look up and state reported protein stability index for S12Y
Response: 2.93

Prompt: Look up and state reported protein stability index for L17F
Response: 2.82

Prompt: Look up and state reported protein stability index for L7W
Response: 2.28

Prompt: Look up and state reported protein stability index for S10N
Response: 2.29

Prompt: Look up and state reported protein stability index for R15M
Response: 3.35

Prompt: Look up and state reported protein stability index for S22K
Response: 2.77

Prompt: Look up and state reported protein stability index for L5P
Response: 1.79

Prompt: Look up and state reported protein stability index for G19P
Response: 2.76

Prompt: Look up and state reported protein stability index for Y20Q
Response: 3

Prompt: Look up and state reported protein stability index for L18F
Response: 2.34

Prompt: Look up and state reported protein stability index for R9W
Response: 2.79

Prompt: Look up and state reported protein stability index for L6V
Response: 2.22

Prompt: Look up and state reported protein stability index for D13Y
Response: 3.38

Prompt: Look up and state reported protein stability index for E11T
Response: 2.44

Prompt: Look up and state reported protein stability index for S22F
Response: 2.73

Prompt: Look up and state reported protein stability index for S12P
Response: 3.27
